From: PubChem BioAssay

assay-target: Neurogenic locus notch homolog protein 2 (Homo sapiens)
test-protocol: small molecules binding Notch2 protein – biochemical, small-molecule microarray, 635 nm fluorescence, stem cell growth factors, primary screen (AID 1073)
measurement-parameters: higher = more signal
observed-property: composite z-score

{"compound": "CN1C(=O)C2C=CC(C(O)C3CCCCC3)N(N(c3ccccc3)c3ccccc3)C2C1=O (stereo not given)", "assay-target": "Neurogenic locus notch homolog protein 2 (Homo sapiens)", "composite z-score": -0.112}

From here, focus on the item given below.
Input line: Sample CCCN1C(=O)[C@@]2(Cc3ccccc3)N=C(c3ccc(OCCCO)cc3)O[C@H]2c2ccccc21 — what was its composite z-score?
Output line: 0.498
